// provenance: patent US20250011410A1

Examples of binders with documented Ratio (KD) WT/clones follow.
- Subject of test: T1, canine NGF tagged at the C-terminus with the Flag tag (canine, UniProt A0A8I3PYI3 122-241)
- T1 construct: mature; Expressed with baculovirus technology; also called feline NGF (processed form identical)
- Method notes: SPR off-rate assay, Fab-SASA on BSA chip
Reported metric: Ratio (KD) WT/clones

- AHF17599 (Fab, V domains shown, not shown: small tags and cut ends) VH: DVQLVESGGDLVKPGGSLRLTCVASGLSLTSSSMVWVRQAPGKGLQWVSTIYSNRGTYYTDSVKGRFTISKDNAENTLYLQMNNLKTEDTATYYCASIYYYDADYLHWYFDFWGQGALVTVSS VL: EIQMTQSPTSLSASVGDRVTITCRASEGIANNLSWYQQTPGKAPKLLIYATSVLHSGVPSRFSGSGSGTDFTLTISSLQPEDFATYYCQQGYKWPLTFGGGTKLEITR: 732
- AHF17596 (Fab, V domains shown, not shown: small tags and cut ends) VH: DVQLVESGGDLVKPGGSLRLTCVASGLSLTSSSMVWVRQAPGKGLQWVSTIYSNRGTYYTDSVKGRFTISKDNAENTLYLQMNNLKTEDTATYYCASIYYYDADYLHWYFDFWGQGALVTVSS VL: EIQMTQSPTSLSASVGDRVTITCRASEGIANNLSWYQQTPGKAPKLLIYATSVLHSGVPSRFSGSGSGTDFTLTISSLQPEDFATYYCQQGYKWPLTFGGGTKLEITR: 43.1
